Give drug sensitivity score for every item shown.
system: STS26T; experiment: drug sensitivity score (DSS, CellTox-Green cytotoxicity, 72 h) (DSS (dimensionless)); higher = more cytotoxic; extreme values may be limits of the assay
One number for each entry.

COMPOUND | drug sensitivity score
CS(=O)(=O)N1CCN(Cc2cc3nc(-c4cccc5[nH]ncc45)nc(N4CCOCC4)c3s2)CC1 [Pictilisib] (max concentration tested 10000 nM) | 0
Cn1cc(C2=C(c3cn(C4CCN(Cc5ccccn5)CC4)c4ccccc34)C(=O)NC2=O)c2ccccc21 [Enzastaurin] (max concentration tested 10000 nM) | 0.0176
Clc1ccc(Nc2nnc(Cc3ccncc3)c3ccccc23)cc1 [Vatalanib] (max concentration tested 10000 nM) | 0
Cn1c(CCCC(=O)O)nc2cc(N(CCCl)CCCl)ccc21 [Bendamustine] (max concentration tested 10000 nM) | 0
Nc1ncnc2c1nc(N)n2[C@@H]1O[C@H](CO)[C@@H](O)[C@H]1O [8-amino-adenosine] (max concentration tested 50000 nM) | 16.9
COc1cc([C@@H]2c3cc4c(cc3[C@@H](O[C@@H]3O[C@@H]5CO[C@@H](c6cccs6)O[C@H]5[C@H](O)[C@H]3O)[C@H]3COC(=O)[C@H]23)OCO4)cc(OC)c1O [Teniposide] (max concentration tested 10000 nM) | 11
COc1cccc2c1C(=O)c1c(O)c3c(c(O)c1C2=O)C[C@@](O)(C(C)=O)C[C@@H]3O[C@H]1C[C@H](N)[C@H](O)[C@H](C)O1 [Daunorubicin] (max concentration tested 1000 nM) | 3.13
CN(c1ccccc1CNc1nc(Nc2ccc3c(c2)CC(=O)N3)ncc1C(F)(F)F)S(C)(=O)=O (max concentration tested 10000 nM) | 6.59

Quick one: give me drug sensitivity score for each item below, same order please.
1. CO[C@H]1C[C@@H]2CC[C@@H](C)[C@@](O)(O2)C(=O)C(=O)N2CCCC[C@H]2C(=O)O[C@H]([C@H](C)C[C@@H]2CC[C@@H](OP(C)(C)=O)[C@H](OC)C2)CC(=O)[C@H](C)/C=C(\C)[C@@H](O)[C@@H](OC)C(=O)[C@H](C)C[C@H](C)/C=C/C=C/C=C/1C [Ridaforolimus] (max concentration tested 100 nM)
2. COc1cc(Nc2ncc3c(n2)-c2ccc(Cl)cc2C(c2c(F)cccc2OC)=NC3)ccc1C(=O)O [Alisertib] (max concentration tested 10000 nM)
3. Cc1cc2c(C(C)C)c(O)c(O)c(C=O)c2c(O)c1-c1c(C)cc2c(C(C)C)c(O)c(O)c(C=O)c2c1O [AT 101] (max concentration tested 100000 nM)
4. CCN(CC)CCNC(=O)c1c(C)[nH]c(/C=C2\C(=O)Nc3ccc(F)cc32)c1C [Sunitinib] (max concentration tested 1000 nM)

Result:
1. 0
2. 18.8
3. 0
4. 0

Quick one: give me drug sensitivity score for each item below, same order please.
1. Cc1ccc(Nc2nccc(N(C)c3ccc4c(C)n(C)nc4c3)n2)cc1S(N)(=O)=O [Pazopanib] (max concentration tested 10000 nM)
2. CN(C)C(=N)NC(=N)N [Metformin aq] (max concentration tested 100000 nM)
3. Nc1ncn([C@H]2C[C@H](O)[C@@H](CO)O2)c(=O)n1 [Decitabine] (max concentration tested 10000 nM)
4. CC(C)C[C@H](NC(=O)[C@@H](COC(C)(C)C)NC(=O)[C@H](Cc1ccc(O)cc1)NC(=O)[C@H](CO)NC(=O)[C@H](Cc1c[nH]c2ccccc12)NC(=O)[C@H](Cc1cnc[nH]1)NC(=O)[C@@H]1CCC(=O)N1)C(=O)N[C@@H](CCCNC(=N)N)C(=O)N1CCC[C@H]1C(=O)NNC(N)=O [Goserelin] (max concentration tested 10000 nM)
5. CN1CCN(c2nc(C3=C(c4c[nH]c5ccccc45)C(=O)NC3=O)c3ccccc3n2)CC1 [Sotrastaurin] (max concentration tested 10000 nM)
6. NS(=O)(=O)OC[C@@H]1C[C@@H](n2ccc3c(N[C@H]4CCc5ccccc54)ncnc32)C[C@@H]1O [Pevonedistat] (max concentration tested 10000 nM)
7. CNC(=O)c1cccc(-c2ccc3c(N4CCOC[C@@H]4C)nc(N4CCOC[C@@H]4C)nc3n2)c1 [AZD2014] (max concentration tested 10000 nM)

Result:
0
0
0
0
0
11.7
0

Quick one: give me drug sensitivity score for each item below, same order please.
1. Nc1ccn([C@@H]2O[C@H](CO)[C@@H](O)[C@@H]2O)c(=O)n1 [Cytarabine] (max concentration tested 10000 nM)
2. C[C@@H]1CCN(C(=O)CC#N)C[C@@H]1N(C)c1ncnc2[nH]ccc12 [Tofacitinib] (max concentration tested 5000 nM)

Result:
5.45
0
